We begin with a simple list: items and their reported MIC.
System: Listeria innocua
assay details: Antibacterial activity against Listeria innocua E044 after 18 hrs by agar dilution method
Type: functional
stated conditions: E044, 18 h
Kindly answer with a numeric value in µM, unit omitted.

{"molecule": "O=C(N[C@H](CO)[C@H](O)c1ccc([N+](=O)[O-])cc1)C(Cl)Cl", "MIC, µM": 12}

Next molecule, MIC to be filled in.
stdin: Requested field: MIC. Item: CC1COc2c(N3CCN(C)CC3)c(F)cc3c(=O)c(C(=O)O)cn1c23 (centres undefined)
stdout: 11

---

Test system: Enterococcus faecium
assay details: Antibacterial activity against Enterococcus faecium N733 after 18 hrs by agar dilution method
Format: functional
stated conditions: N733, 18 h
The entries below are paired with their reported MIC.

Answered cases to consult:
{"molecule": "C=C1CC[C@H]2C(C)(C)CCC[C@]2(C)[C@H]1C[C@H](O)C1=CC(=O)OC1O (some centres undefined)", "result type": "MIC", "result": "> 96 µM"}
{"molecule": "O=C(N[C@H](CO)[C@H](O)c1ccc([N+](=O)[O-])cc1)C(Cl)Cl [CHLORAMPHENICOL]", "result type": "MIC", "result": "12 µM"}
{"molecule": "C=C(CC(=O)O)C(=O)C[C@H]1C(=C)CC[C@H]2C(C)(C)CCC[C@]12C", "result type": "MIC", "result": "> 158 µM"}

stdin: Kindly state the measured MIC obtained for CC1COc2c(N3CCN(C)CC3)c(F)cc3c(=O)c(C(=O)O)cn1c23 (centres undefined) [OFLOXACIN] with Enterococcus faecium.
stdout: > 354 µM

---

System: Staphylococcus saprophyticus
assay details: Antibacterial activity against Staphylococcus saprophyticus CIP 76125 after 18 hrs by agar dilution method
Format: functional
stated conditions: CIP 76125, 18 h
result type: MIC

As a guide, the following entries are already answered.
{"compound": "C=C1CC[C@H]2C(C)(C)CCC[C@]2(C)[C@H]1C[C@H](O)C1=CCOC1=O", "result": "> 79 µM"}
{"compound": "O=C(N[C@H](CO)[C@H](O)c1ccc([N+](=O)[O-])cc1)C(Cl)Cl", "result": "25 µM"}
{"compound": "C=C1CC[C@H]2C(C)(C)CCC[C@]2(C)[C@H]1C[C@@H](O)C1=CC(=O)OC1O (some centres undefined)", "result": "24 µM"}

Now for another entry.
stdin: Tell me the measured MIC of C=C1CC[C@H]2C(C)(C)CCC[C@]2(C)[C@H]1C[C@H](O)C1=CC(=O)OC1O (some centres undefined) , please.
stdout: 48 µM

---

Property: MIC; scope: individual compounds
Tested on: Staphylococcus saprophyticus
assay details: Antibacterial activity against Staphylococcus saprophyticus CIP 76125 after 18 hrs by agar dilution method
Assay type: functional
stated conditions: CIP 76125, 18 h
Report only the number, with the unit µM understood.

{"compound": "CN[C@H](CC(C)C)C(=O)N[C@H]1C(=O)N[C@@H](CC(N)=O)C(=O)N[C@H]2C(=O)N[C@H]3C(=O)N[C@H](C(=O)N[C@H](C(=O)O)c4cc(O)cc(O)c4-c4cc3ccc4O)[C@H](O)c3ccc(c(Cl)c3)Oc3cc2cc(c3O[C@@H]2O[C@H](CO)[C@@H](O)[C@H](O)[C@H]2O[C@H]2C[C@](C)(N)[C@H](O)[C@H](C)O2)Oc2ccc(cc2Cl)[C@H]1O", "measured target": "Staphylococcus saprophyticus", "result number": 0.6}
{"compound": "CC1COc2c(N3CCN(C)CC3)c(F)cc3c(=O)c(C(=O)O)cn1c23 (stereo unspecified)", "measured target": "Staphylococcus saprophyticus", "result number": 3}
{"compound": "C=C(CC(=O)O)C(=O)C[C@H]1C(=C)CC[C@H]2C(C)(C)CCC[C@]12C", "measured target": "Staphylococcus saprophyticus", "result number": 158}

Turning now to a further compound:
stdin: Item CC1(C)S[C@@H]2[C@H](NC(=O)[C@H](N)c3ccc(O)cc3)C(=O)N2[C@H]1C(=O)O has what recorded MIC?
stdout: 0.7

---

Tested on: Staphylococcus intermedius
assay details: Antibacterial activity against Staphylococcus intermedius N987 after 18 hrs by agar dilution method
Assay type: functional
stated conditions: N987, 18 h
result type: MIC (µM)
Output spec: scalar in µM, unitless text.

{"compound": "O=C(N[C@H](CO)[C@H](O)c1ccc([N+](=O)[O-])cc1)C(Cl)Cl", "readout units": "µM", "MIC": 25}
{"compound": "CN[C@H](CC(C)C)C(=O)N[C@H]1C(=O)N[C@@H](CC(N)=O)C(=O)N[C@H]2C(=O)N[C@H]3C(=O)N[C@H](C(=O)N[C@H](C(=O)O)c4cc(O)cc(O)c4-c4cc3ccc4O)[C@H](O)c3ccc(c(Cl)c3)Oc3cc2cc(c3O[C@@H]2O[C@H](CO)[C@@H](O)[C@H](O)[C@H]2O[C@H]2C[C@](C)(N)[C@H](O)[C@H](C)O2)Oc2ccc(cc2Cl)[C@H]1O", "readout units": "µM", "MIC": 0.6}
{"compound": "C=C1CC[C@H]2C(C)(C)CCC[C@]2(C)[C@H]1C[C@@H](O)C1=CC(=O)OC1O (stereo not given in full)", "readout units": "µM", "MIC": 12}
{"compound": "CC1COc2c(N3CCN(C)CC3)c(F)cc3c(=O)c(C(=O)O)cn1c23 (stereo not given)", "readout units": "µM", "MIC": 89}

stdin: # query: MIC of entry CC1(C)S[C@@H]2[C@H](NC(=O)[C@H](N)c3ccc(O)cc3)C(=O)N2[C@H]1C(=O)O
stdout: 88

stdin: What value of MIC has been reported for the following compound? C=C1CC[C@H]2C(C)(C)CCC[C@]2(C)[C@H]1C[C@H](O)C1=CCOC1=O
stdout: 50

stdin: May I ask what MIC has been recorded for C=C(CC(=O)O)C(=O)C[C@H]1C(=C)CC[C@H]2C(C)(C)CCC[C@]12C ?
stdout: 100

stdin: Looking for the measured MIC of C=C1CC[C@H]2C(C)(C)CCC[C@]2(C)[C@H]1C[C@H](O)C1=CC(=O)OC1O (stereo not given in full) , can you help?
stdout: 24

---

In this section we review reported MIC values for a set of compounds.
Test system: Staphylococcus aureus
assay details: Antibacterial activity against Staphylococcus aureus CIP 53156 after 18 hrs by agar dilution method
Type: functional
stated conditions: CIP 53156, 18 h
Kindly answer with a numeric value in µM, unit omitted.

{"compound": "CC1COc2c(N3CCN(C)CC3)c(F)cc3c(=O)c(C(=O)O)cn1c23 (stereo not given)", "MIC (µM)": 0.7}
{"compound": "C=C1CC[C@H]2C(C)(C)CCC[C@]2(C)[C@H]1C[C@@H](O)C1=CC(=O)OC1O (stereo not given in full)", "MIC (µM)": 12}
{"compound": "C=C1CC[C@H]2C(C)(C)CCC[C@]2(C)[C@H]1C[C@H](O)C1=CC(=O)OC1O (stereo not given in full)", "MIC (µM)": 48}
{"compound": "C=C(CC(=O)O)C(=O)C[C@H]1C(=C)CC[C@H]2C(C)(C)CCC[C@]12C", "MIC (µM)": 158}
{"compound": "O=C(N[C@H](CO)[C@H](O)c1ccc([N+](=O)[O-])cc1)C(Cl)Cl", "MIC (µM)": 12}

stdin: Dear colleague, I am looking for the recorded MIC of the following compound: C=C1CC[C@H]2C(C)(C)CCC[C@]2(C)[C@H]1C[C@H](O)C1=CCOC1=O
stdout: 50

stdin: Reported MIC for CN[C@H](CC(C)C)C(=O)N[C@H]1C(=O)N[C@@H](CC(N)=O)C(=O)N[C@H]2C(=O)N[C@H]3C(=O)N[C@H](C(=O)N[C@H](C(=O)O)c4cc(O)cc(O)c4-c4cc3ccc4O)[C@H](O)c3ccc(c(Cl)c3)Oc3cc2cc(c3O[C@@H]2O[C@H](CO)[C@@H](O)[C@H](O)[C@H]2O[C@H]2C[C@](C)(N)[C@H](O)[C@H](C)O2)Oc2ccc(cc2Cl)[C@H]1O : what is it?
stdout: 0.3

---

Test system: Enterococcus faecium
assay details: Antibacterial activity against Enterococcus faecium N733 after 18 hrs by agar dilution method
Assay type: functional
stated conditions: N733, 18 h
result type: MIC

Please review the entries below; each comes with its answer.
{"molecule": "C=C1CC[C@H]2C(C)(C)CCC[C@]2(C)[C@H]1C[C@@H](O)C1=CC(=O)OC1", "result type": "MIC", "result": "50 µM"}
{"molecule": "CC1(C)CCC[C@]2(C)[C@@H]1CC[C@]1(CO)O[C@@H](C3=CC(=O)OC3O)C[C@H]12 (stereo partly specified)", "result type": "MIC", "result": "> 46 µM"}
{"molecule": "C=C1CC[C@H]2C(C)(C)CCC[C@]2(C)[C@H]1C[C@@H](O)C1=CC(=O)OC1O (stereo partly specified)", "result type": "MIC", "result": "96 µM"}
{"molecule": "CN[C@H](CC(C)C)C(=O)N[C@H]1C(=O)N[C@@H](CC(N)=O)C(=O)N[C@H]2C(=O)N[C@H]3C(=O)N[C@H](C(=O)N[C@H](C(=O)O)c4cc(O)cc(O)c4-c4cc3ccc4O)[C@H](O)c3ccc(c(Cl)c3)Oc3cc2cc(c3O[C@@H]2O[C@H](CO)[C@@H](O)[C@H](O)[C@H]2O[C@H]2C[C@](C)(N)[C@H](O)[C@H](C)O2)Oc2ccc(cc2Cl)[C@H]1O [VANCOMYCIN]", "result type": "MIC", "result": "> 86 µM"}
{"molecule": "C=C1CC[C@H]2C(C)(C)CCC[C@]2(C)[C@H]1C[C@H](O)C1=CCOC1=O", "result type": "MIC", "result": "> 79 µM"}

Now take the following molecule into account.
stdin: Which MIC is reported for this molecule? CC1(C)S[C@@H]2[C@H](NC(=O)[C@H](N)c3ccc(O)cc3)C(=O)N2[C@H]1C(=O)O [AMOXICILLIN]
stdout: > 350 µM
